ASSAY_OVERVIEW: NCI Yeast Anticancer Drug Screen. Data for the sgs1 mgt1 strain (AID 161)
APPLIED_CONDITIONS: S. cerevisiae sgs1 mgt1 strain, at 50.0 µM
The panel holds about 79,000 compounds, 15% with a hit somewhere; the sample as a whole holds those more often. Active and inactive are the calls of the source. Cut-off read from the data, not from the text of the source: active = growth inhibition above about 70%; inactive = the rest. Where a SMILES comes first, the peptide text is derived from it. [ ]: non-standard residue; d: D form. The star is where a group is joined. ONb = O=[N+]([O-])c1ccc(CO*)cc1; AllylGly = C=CC[CH](N)C(=O)O; Boc = CC(C)(C)OC(=O)*
# output must be one of true = active, false = inactive

COc1ccc(CN2CCCN(Cc3ccc(OC)cc3OC)C2c2ccc(N(C)C)cc2)c(OC)c1 : false
O=C1CCC(N2C(=O)c3ccccc3C2=O)C(=O)O1 (stereo not drawn) : false
CC(=O)CC(=O)NCc1ccc2c(c1)OCO2 : false
CC1(C)Cc2ccccc2C1=O : false
CCN(CC)CCOc1cc(C(C)C)ccc1C : false
COc1ccc2c(=O)cc[nH]c2c1OC : false

[Q] Hi team, can someone confirm the assay call for CN(C)C(=S)S(=O)(=O)c1ccc([N+](=O)[O-])cc1 ?
[A] false

[Q] Hi team, can someone confirm the assay call for Cc1nn(-c2ccccc2)c2c1N=C(C(=O)O)CC(c1ccccc1)=N2 ?
[A] false

[Q] Hi team, can someone confirm the assay call for O=C(O)CCC1CCc2cccc(OCC(=O)O)c2C1=O (stereo not drawn) ?
[A] false

[Q] Hi team, can someone confirm the assay call for Cc1ccc(C(C)C)cc1OCCOCCCl ?
[A] false

[Q] Hi team, can someone confirm the assay call for CCCNCC(O)c1cc(C(F)(F)F)nc2c(C(F)(F)F)cccc12 (stereo not drawn) ?
[A] false

[Q] Hi team, can someone confirm the assay call for Cc1ccc(C(=O)c2c(C)cccc2C(=O)O)c(C)c1 ?
[A] false

[Q] Hi team, can someone confirm the assay call for N#Cc1c(-c2ccc(Cl)cc2)cn2c1[nH]c(=O)c1c3c(sc12)CCCC3 ?
[A] false

[Q] Hi team, can someone confirm the assay call for CCCCCC(C)C(C#N)C(=O)OCC (stereo not drawn) ?
[A] false

[Q] Hi team, can someone confirm the assay call for C/C(CC(=O)NCCc1ccccc1)=N\NS(=O)(=O)c1ccc(C)cc1 ?
[A] false

[Q] Hi team, can someone confirm the assay call for Nc1nc(/C=C(/O)c2ccccc2)c2ncn(C3OC(CO)C(O)C3O)c2n1 (stereo not drawn) ?
[A] false

[Q] Hi team, can someone confirm the assay call for C=C1C(=O)[C@@]23CC[C@@H]4[C@@]5(C)CCC[C@@]4(OC5=O)C2(C)CC[C@]1(OC)C3 (stereo partly drawn) ?
[A] true

[Q] Hi team, can someone confirm the assay call for O=[N+]([O-])c1ccc(N=P(c2ccccc2)(c2ccccc2)c2ccccc2)n2nnnc12 ?
[A] false

[Q] Hi team, can someone confirm the assay call for C/[N+]([O-])=C/c1ncc([N+](=O)[O-])n1CCO ?
[A] false

[Q] Hi team, can someone confirm the assay call for O=C(CCCCCCCCC(=O)OCC1OC(n2cnc3c(=O)[nH]cnc32)C(O)C1O)OCC1OC(n2cnc3c(=O)[nH]cnc32)C(O)C1O (stereo not drawn) ?
[A] false

[Q] Hi team, can someone confirm the assay call for CCCCCCC(O)CCCCCCCCCCC(=O)O (stereo not drawn) ?
[A] false

[Q] Hi team, can someone confirm the assay call for Nc1c(S(=O)(=O)O)ccc2c1C(=O)c1ccccc1C2=O ?
[A] false

[Q] Hi team, can someone confirm the assay call for Cc1ccc(C(=O)OC2CCCC2)cc1 ?
[A] false

[Q] Hi team, can someone confirm the assay call for CC1C(=O)CCC2C1(C)CCC1C2(C)CCC2(C)C3CC(C)(C)CCC3(C)CCC12C (stereo not drawn) ?
[A] false

[Q] Hi team, can someone confirm the assay call for O/N=C1\CCn2cccc21 ?
[A] false

[Q] Hi team, can someone confirm the assay call for NC(=S)N/N=C1/C(=O)N(c2ccccc2)C(=O)C1C(=O)Nc1ccccc1 (stereo not drawn) ?
[A] false

[Q] Hi team, can someone confirm the assay call for C=CCC(NC(=O)OC(C)(C)C)C(=O)NC(CCC(=O)OCc1ccc([N+](=O)[O-])cc1)C(N)=O (stereo not drawn) (Boc-[AllylGly]-Glu(ONb)-NH2; configuration not given here) ?
[A] false

[Q] Hi team, can someone confirm the assay call for C=C(c1nc2ccc(Cl)cc2[nH]c1=O)C(O)c1ccc(C(O)C(=O)c2nc3ccc(Cl)cc3[nH]c2=O)cc1 (stereo not drawn) ?
[A] false
